Attribute: ED50
# System: Mus musculus
# Assay comment: Acute toxicity in po dosed CD-1 mouse assessed as mortality after 24 hrs
# Assay type: organism-based
# Condition context: in vivo

Answered cases to consult:
## Input Any idea what its ED50 is? The molecule is CCN1CCN(/C=C2\N=C3CN=C(c4ccccc4)c4cc(Cl)ccc4N3C2=O)CC1
## Output > 1000 mg/kg

## Input Any idea what its ED50 is? The molecule is CN(C)/C=C1\N=C2CN=C(c3ccccc3)c3cc(Cl)ccc3N2C1=O
## Output > 1000 mg/kg

## Input Any idea what its ED50 is? The molecule is CN1CCN(/C=C2\N=C3CN=C(c4ccccc4)c4cc([N+](=O)[O-])ccc4N3C2=O)CC1
## Output > 1000 mg/kg

## Input Any idea what its ED50 is? The molecule is O=C1/C(=C/N2CCN(c3ccccc3)CC2)N=C2CN=C(c3ccccc3)c3cc(Cl)ccc3N12
## Output > 1000 mg/kg

## Input Any idea what its ED50 is? The molecule is CCCN/C=C1\N=C2CN=C(c3ccccc3Cl)c3cc(Cl)ccc3N2C1=O
## Output > 1000 mg/kg

## Input Any idea what its ED50 is? The molecule is CN/C=C1\N=C2CN=C(c3ccccc3)c3cc(Cl)ccc3N2C1=O
## Output > 1000 mg/kg

## Input Any idea what its ED50 is? The molecule is CCCN/C=C1\NC2CN=C(c3ccccc3)c3cc(Cl)ccc3N2C1=O (stereo not given)
## Output > 1000 mg/kg

## Input Any idea what its ED50 is? The molecule is O=C1/C(=C/c2ccccc2)N=C2CN=C(c3ccccc3)c3cc(Cl)ccc3N12
## Output > 1000 mg/kg

New cases:
## Input Any idea what its ED50 is? The molecule is CN1CCN(/C=C2\N=C3CN=C(c4ccccc4)c4cc(Cl)ccc4N3C2=O)CC1
## Output > 1000 mg/kg

## Input Any idea what its ED50 is? The molecule is CCN1CCN(/C=C2\N=C3CN=C(c4ccccc4Cl)c4cc(Cl)ccc4N3C2=O)CC1
## Output > 1000 mg/kg

* * *

Attribute: ED50
# Tested on: Mus musculus
# Assay comment: Potentiation of chlorprothixene-induced sedative effect in po dosed CD-1 mouse assessed as loss of righting reflex
# Type: functional
# Condition context: CD-1, po
# output: bare number, implied unit mg/kg

## Input Any idea what its ED50 is? The molecule is C=CCN1CCN(/C=C2\N=C3CN=C(c4ccccc4)c4cc(Cl)ccc4N3C2=O)CC1
## Output 18

## Input Any idea what its ED50 is? The molecule is CCCN/C=C1\NC2CN=C(c3ccccc3)c3cc(Cl)ccc3N2C1=O (configuration not stated)
## Output 2.6

## Input Any idea what its ED50 is? The molecule is N/C=C1\N=C2CN=C(c3ccccc3)c3cc(Cl)ccc3N2C1=O
## Output 4.3

## Input Any idea what its ED50 is? The molecule is CN1CCN(/C=C2\N=C3CN=C(c4ccccc4Cl)c4cc([N+](=O)[O-])ccc4N3C2=O)CC1
## Output 1.1

## Input Any idea what its ED50 is? The molecule is CCN1CCN(/C=C2\N=C3CN=C(c4ccccc4F)c4cc(Cl)ccc4N3C2=O)CC1
## Output 2.35

## Input Any idea what its ED50 is? The molecule is CCN/C=C1\N=C2CN=C(c3ccccc3Cl)c3cc(Cl)ccc3N2C1=O
## Output 9.6

## Input Any idea what its ED50 is? The molecule is O=C1/C(=C/NC2CCCCC2)N=C2CN=C(c3ccccc3)c3cc(Cl)ccc3N12
## Output 6.2

## Input Any idea what its ED50 is? The molecule is CCN1CCN(/C=C2\N=C3CN=C(c4ccccc4F)c4cc([N+](=O)[O-])ccc4N3C2=O)CC1
## Output 4

New cases:
## Input Any idea what its ED50 is? The molecule is CCN1CCN(/C=C2\N=C3CN=C(c4ccccc4Cl)c4cc(Cl)ccc4N3C2=O)CC1
## Output 1.2

## Input Any idea what its ED50 is? The molecule is O=C1/C(=C/N2CCOCC2)N=C2CN=C(c3ccccc3)c3cc(Cl)ccc3N12
## Output 20.3

## Input Any idea what its ED50 is? The molecule is O=C1/C(=C/N2CCNCC2)N=C2CN=C(c3ccccc3)c3cc(Cl)ccc3N12
## Output 23

## Input Any idea what its ED50 is? The molecule is CCN1CCN(/C=C2\N=C3CN=C(c4ccccc4)c4cc(Cl)ccc4N3C2=O)CC1
## Output 5
